System: Liver microsomes
assay_protocol: Intrinsic clearance in Wistar rat liver microsomes at 2 uM
Type: ADME, Microsome
outcome_measure: clearance

Let me know recorded clearance for Cc1ccc(C(=O)N(CCCN)C(c2nc3snc(C)c3c(=O)n2Cc2ccccc2)C(C)C)cc1 (single isomer, unassigned; (+)) , thanks.
< 10 µL/min/mg

====

assay_protocol: Volume of distribution at steady state in Wistar rat at 6 mg/kg, iv administered as a single bolus dose
Format: ADME, organism-based
Parameters: dose 6 mg/kg, route intravenous
test_context: in vivo, read-out: Vdss
outcome_measure: Vd (L/kg)
Respond numerically; units are L/kg and should not be typed.

Identify measured Vd associated with Cc1ccc(C(=O)N(CCCN)C(c2nc3snc(C)c3c(=O)n2Cc2ccccc2)C(C)C)cc1 (single isomer, unassigned; (+))
10

====

system_name: Cytochrome P450 2C19 (Homo sapiens, UniProt P33261)
Sequence (P33261 whole entry): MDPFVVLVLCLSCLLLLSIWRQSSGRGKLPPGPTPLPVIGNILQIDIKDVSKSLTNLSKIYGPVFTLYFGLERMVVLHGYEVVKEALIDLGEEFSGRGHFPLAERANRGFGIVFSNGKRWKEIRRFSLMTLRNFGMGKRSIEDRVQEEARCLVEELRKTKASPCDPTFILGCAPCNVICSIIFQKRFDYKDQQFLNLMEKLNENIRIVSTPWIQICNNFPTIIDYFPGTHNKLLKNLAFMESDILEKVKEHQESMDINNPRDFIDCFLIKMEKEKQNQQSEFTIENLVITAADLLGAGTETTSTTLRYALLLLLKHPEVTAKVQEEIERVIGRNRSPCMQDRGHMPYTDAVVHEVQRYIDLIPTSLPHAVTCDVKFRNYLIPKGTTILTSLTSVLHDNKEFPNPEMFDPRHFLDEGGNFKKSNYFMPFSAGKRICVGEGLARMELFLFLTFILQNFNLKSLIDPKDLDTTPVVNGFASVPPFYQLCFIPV
assay_protocol: Inhibition of human recombinant CYP2C19
outcome_measure: IC50

// Input: Cc1ccc(C(=O)N(CCCN)C(c2nc3snc(C)c3c(=O)n2Cc2ccccc2)C(C)C)cc1 (single isomer, unassigned; (+)) . Output its IC50 only.
> 10 µM

====

system_name: Cytochrome P450 3A4 (Homo sapiens, UniProt P08684)
Sequence (P08684 whole entry): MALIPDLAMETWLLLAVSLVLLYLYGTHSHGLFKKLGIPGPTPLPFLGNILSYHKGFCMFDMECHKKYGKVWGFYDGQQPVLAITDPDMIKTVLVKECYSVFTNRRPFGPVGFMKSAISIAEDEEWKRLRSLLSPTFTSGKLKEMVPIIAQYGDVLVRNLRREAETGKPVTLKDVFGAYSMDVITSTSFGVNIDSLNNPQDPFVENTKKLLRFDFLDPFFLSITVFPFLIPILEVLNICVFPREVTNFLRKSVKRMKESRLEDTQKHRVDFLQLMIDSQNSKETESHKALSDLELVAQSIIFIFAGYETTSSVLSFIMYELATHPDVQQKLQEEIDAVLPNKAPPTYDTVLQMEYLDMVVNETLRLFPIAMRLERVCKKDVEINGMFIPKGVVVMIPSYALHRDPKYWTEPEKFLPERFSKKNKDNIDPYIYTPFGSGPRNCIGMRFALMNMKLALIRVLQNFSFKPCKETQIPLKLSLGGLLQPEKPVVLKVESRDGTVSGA
assay_protocol: Inhibition of human recombinant CYP3A4
outcome_measure: IC50

Please report the measured IC50 for Cc1ccc(C(=O)N(CCCN)C(c2nc3snc(C)c3c(=O)n2Cc2ccccc2)C(C)C)cc1 (single isomer, unassigned; (+))
> 10 µM

====

assay_protocol: Clearance in Wistar rat
Type: ADME, organism-based
test_context: in vivo
outcome_measure: clearance (mL/min/kg)
Kindly provide the numeric value in mL/min/kg only, without the unit symbol.

Complete the entry with clearance for Cc1ccc(C(=O)N(CCCN)C(c2nc3snc(C)c3c(=O)n2Cc2ccccc2)C(C)C)cc1 (single isomer, unassigned; (+)) [AZD-4877]
36

====

assay_protocol: Initial plasma concentration in Wistar rat at 6 mg/kg, iv administered as a single bolus dose
Assay type: ADME, organism-based
Parameters: dose 6 mg/kg, route intravenous
outcome_measure: C0 (ng/mL)
Write the number in ng/mL without appending the unit.

Note down C0 recorded for Cc1ccc(C(=O)N(CCCN)C(c2nc3snc(C)c3c(=O)n2Cc2ccccc2)C(C)C)cc1 (single isomer, unassigned; (+)) [AZD-4877]
1080

====

system_name: Kinesin-like protein KIF11 (Homo sapiens)
assay_protocol: Inhibition of human recombinant C-terminal His6-tagged KSP ATPase activity after 1 hr by malachite green assay
Exercise: for every item that follows, state its recorded IC50.
Reply with just the number (in nM).

For CCC(c1nc2ccsc2c(=O)n1Cc1ccccc1)N(CCCN)C(=O)c1ccccc1Cl (stereo not drawn) , write its IC50.
610

For the molecule CCC(c1nc2ccsc2c(=O)n1Cc1ccccc1)N(CCCN)C(=O)c1ccc(OC)cc1 (stereo not drawn) , report IC50.
210

Fill in reported IC50 for this entry: CCCCC(=O)N(CCCN)C(CC)c1nc2ccsc2c(=O)n1Cc1ccccc1 (stereo not drawn)
5520

Identify the reported IC50 for the following entry. CCC(c1nc2sccc2c(=O)n1Cc1ccccc1)N(CCCN)C(=O)c1ccc(C)cc1 (single isomer, unassigned; (-))
1900

// fetch IC50 given entry CCC(c1nc2ccsc2c(=O)n1Cc1ccccc1)N(CCCN)C(=O)C1COc2ccccc2O1 (stereo not drawn)
2310

Identify the reported IC50 for the following entry. Cc1ccc(C(=O)N(CCCN)C(c2nc3snc(C)c3c(=O)n2Cc2ccccc2)C(C)C)cc1 (single isomer, unassigned; (-)) [AZD-4877]
429

Fill in reported IC50 for this entry: CCC(c1nc2ccsc2c(=O)n1Cc1cc(C)on1)N(CCCN)C(=O)c1ccc(C)cc1 (stereo not drawn)
630

Return the recorded IC50 value; entry: CCC(c1nc2c(C)nsc2c(=O)n1Cc1ccccc1)N(CCCN)C(=O)c1ccc(C)cc1 (stereo not drawn)
5

Could you please provide reported IC50 for CCC(c1nc2ccsc2c(=O)n1Cc1ccccc1)N(CCCN)C(=O)C1CC1 (stereo not drawn) ? Thanks!
6700

Find the measured IC50 of CCC(c1nc2ncccc2c(=O)n1Cc1ccccc1)N(CCCN)C(=O)c1ccc(C)cc1 (stereo not drawn) and report it.
323

Answer with reported IC50 of CCC(c1nc2snc(C)c2c(=O)n1Cc1ccccc1)N(CCCN)C(=O)c1ccc(C)cc1 (stereo in doubt; 62)
3

Fill in IC50 for record CCC(c1nc2ccsc2c(=O)n1Cc1ccccc1)N(CCCNS(C)(=O)=O)C(=O)c1ccc(C)cc1 (stereo not drawn)
5990

Provide IC50 value for the following molecule: CCC(c1nc2ccsc2c(=O)n1Cc1ccccc1)N(CCCN)C(=O)c1ccc(Cl)cc1Cl (stereo not drawn)
150

====

system_name: Kinesin-like protein KIF11 (Homo sapiens, UniProt P52732)
Sequence (P52732 whole entry): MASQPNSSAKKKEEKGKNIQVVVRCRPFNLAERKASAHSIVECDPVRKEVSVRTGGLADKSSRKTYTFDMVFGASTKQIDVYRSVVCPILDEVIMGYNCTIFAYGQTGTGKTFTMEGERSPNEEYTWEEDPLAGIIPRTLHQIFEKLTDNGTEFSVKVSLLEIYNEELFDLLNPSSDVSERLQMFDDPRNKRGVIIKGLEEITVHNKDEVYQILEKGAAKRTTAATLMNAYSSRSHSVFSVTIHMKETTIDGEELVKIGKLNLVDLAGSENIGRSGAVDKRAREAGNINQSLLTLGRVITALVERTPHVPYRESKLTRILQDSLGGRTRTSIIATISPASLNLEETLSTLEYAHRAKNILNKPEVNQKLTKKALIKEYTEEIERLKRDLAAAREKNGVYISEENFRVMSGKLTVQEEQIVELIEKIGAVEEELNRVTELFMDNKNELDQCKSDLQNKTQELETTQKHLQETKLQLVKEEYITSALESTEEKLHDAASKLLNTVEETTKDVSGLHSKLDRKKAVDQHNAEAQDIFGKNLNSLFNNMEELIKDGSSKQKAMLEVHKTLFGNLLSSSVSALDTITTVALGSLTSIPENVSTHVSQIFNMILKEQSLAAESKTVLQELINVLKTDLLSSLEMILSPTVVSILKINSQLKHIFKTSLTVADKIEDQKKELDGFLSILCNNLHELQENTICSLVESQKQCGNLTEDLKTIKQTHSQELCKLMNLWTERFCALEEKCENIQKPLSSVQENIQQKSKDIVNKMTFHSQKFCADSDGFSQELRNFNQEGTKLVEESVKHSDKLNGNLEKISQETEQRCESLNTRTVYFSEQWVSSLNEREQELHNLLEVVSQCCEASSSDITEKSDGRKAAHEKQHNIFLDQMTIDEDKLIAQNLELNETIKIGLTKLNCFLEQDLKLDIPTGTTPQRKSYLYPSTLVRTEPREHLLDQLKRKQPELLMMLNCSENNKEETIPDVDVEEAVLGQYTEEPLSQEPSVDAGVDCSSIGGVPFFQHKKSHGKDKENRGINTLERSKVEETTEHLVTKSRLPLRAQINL
assay_protocol: Inhibition of human recombinant C-terminal His6-tagged KSP ATPase activity after 1 hr by malachite green assay
pIC50: −log10 of the molar value.
Classify by measured pIC50: met if it is equal to or exceeds 7, not met if it is smaller.

Please tell me: is the molecule CCC(c1nc2ccsc2c(=O)n1Cc1ccccc1)N(CCCN)C(=O)c1ccccc1 (stereo not drawn) at or over 7 in terms of pIC50?
not met

// inclusive: pIC50 at least 7? input: CCC(c1nc2ccsc2c(=O)n1Cc1ccccc1)N(CCCN)C(=O)c1ccc(OC(F)(F)F)cc1 (stereo not drawn)
not met

Determine whether this molecule has pIC50 no lower than 7: CCC(c1nc2ccsc2c(=O)n1Cc1ccccc1)N(CCCN)C(=O)c1ccc(C)cc1 (stereo not drawn)
met

Please tell me: is the molecule CCC(c1nc2sccc2c(=O)n1Cc1ccccc1)N(CCCN)C(=O)c1ccc(C)cc1 (single isomer, unassigned; (+)) at or over 7 in terms of pIC50?
met

// inclusive: pIC50 at least 7? input: CCC(c1nc2ccsc2c(=O)n1Cc1ccccc1)N(C(=O)c1ccc(C)cc1)C1CCNCC1 (stereo not drawn)
not met

Confirm if pIC50 reported for the molecule Cc1ccc(C(=O)N(CCCN)C(c2nc3snc(C)c3c(=O)n2Cc2ccccc2)C(C)C)cc1 (single isomer, unassigned; (+)) [AZD-4877] is 7 or above.
met

Dear colleague, could you confirm whether CCC(c1nc2ccsc2c(=O)n1Cc1ccccc1)N(CCCN)C(=O)c1ccc(Br)cc1 (stereo not drawn) has pIC50 at or above 7?
met

In plain terms: is recorded pIC50 at least 7 for CCC(c1nc2ccoc2c(=O)n1Cc1ccccc1)N(CCCN)C(=O)c1ccc(C)cc1 (stereo not drawn) ?
met

Exam item: decide whether the reported pIC50 for CCC(c1nc2ccsc2c(=O)n1Cc1ccccn1)N(CCCN)C(=O)c1ccc(C)cc1 (stereo not drawn) is at least 7.
not met

Textbook exercise: given the entry CCC(c1nc2ccsc2c(=O)n1Cc1ccccc1)N(CCCN)C(=O)c1ccc(C(F)(F)F)cc1 (stereo not drawn) , state whether its pIC50 is greater than or equal to 7.
not met

Decide: is the reported value of pIC50 for CCC(c1nc2ccsc2c(=O)n1Cc1ccccc1)N(CCCN)C(=O)c1cc2ccccc2s1 (stereo not drawn) equal to or greater than 7?
met

====

system_name: Kinesin-like protein KIF11 (Homo sapiens)
assay_protocol: Inhibition of human recombinant C-terminal His6-tagged KSP ATPase activity after 1 hr by malachite green assay
Give pIC50 for every item shown.
Units for pIC50: none; it is -log10 of a concentration expressed in mol/L.

Identify the reported pIC50 for the following entry. CCC(c1nc2ccsc2c(=O)n1Cc1ccccc1)N(CCCN)C(=O)c1cccc(C(F)(F)F)c1 (stereo unspecified)
6.51

Determine its reported pIC50: CCC(c1nc2ccsc2c(=O)n1Cc1ccccc1)N(CCCN)C(=O)C1CCCC1 (stereo unspecified)
5.37

Item CCC(c1nc2ccsc2c(=O)n1Cc1ccccc1)N(CCCN)C(=O)c1ccno1 (stereo unspecified) : provide pIC50
5.86

Give a short answer stating reported pIC50 for CCC(c1nc2ccsc2c(=O)n1Cc1ccccc1)N(CCCN)C(=O)c1ccc2ccccc2c1 (stereo unspecified) .
7.52

State its pIC50: CCC(c1nc2ccsc2c(=O)n1Cc1ccccc1)N(CCCNC(C)=O)C(=O)c1ccc(C)cc1 (stereo unspecified)
5.53

# return recorded pIC50 for input CCC(c1nc2ccsc2c(=O)n1Cc1ccccc1)N(CCCN)C(=O)c1ccc2nccnc2c1 (stereo unspecified)
5.49

====

system_name: Kinesin-like protein KIF11 (Homo sapiens, UniProt P52732)
assay_protocol: Inhibition of human recombinant C-terminal His6-tagged KSP ATPase activity after 1 hr by malachite green assay
Exam item: assign yes (1) to entries whose IC50 is below 3000 nM and no (0) to entries at or above 3000 nM. Note that a value of exactly 3000 nM receives no (0).

Is the reported IC50 for CCC(c1nc2ccsc2c(=O)n1Cc1ccccc1)N(CCCN)C(=O)c1ccc(C(=O)OC)cc1 (stereo unspecified) strictly below 3000 nM?
no (0)

Strictly below 3000 nM in IC50? CCC(c1nc2ccsc2c(=O)n1Cc1ccccc1)N(CCCN)C(=O)c1ccc(C)c(F)c1 (stereo unspecified)
yes (1)

Determine whether this compound shows IC50 lower than 3000 nM (ties excluded): CCC(c1nc2ccsc2c(=O)n1Cc1ccccc1)N(CCCN)C(=O)c1ccc(F)cc1 (stereo unspecified)
yes (1)

Hello, is IC50 of the following compound strictly smaller than 3000 nM? CCC(c1nc2sc(Cl)c(Br)c2c(=O)n1Cc1ccccc1)N(CCCN)C(=O)c1ccc(C)cc1 (stereo unspecified)
yes (1)

In the record for CCc1ccc(C(=O)N(CCCN)C(CC)c2nc3ccsc3c(=O)n2Cc2ccccc2)cc1 (stereo unspecified) , is IC50 less than 3000 nM?
yes (1)

Hi there! Is IC50 for CCC(c1nc2ccsc2c(=O)[nH]1)N(CCCN)C(=O)c1ccc(C)cc1 (stereo unspecified) below 3000 nM, do you know?
no (0)

Does CCC(c1nc2ccsc2c(=O)n1Cc1ccccc1)N(CCCN)C(=O)c1ccc(C#N)cc1 (stereo unspecified) have IC50 strictly under 3000 nM?
yes (1)

Determine if CCC(c1nc2ccsc2c(=O)n1Cc1cccnc1)N(CCCN)C(=O)c1ccc(C)cc1 (stereo unspecified) shows IC50 strictly lower than 3000 nM.
no (0)

Find out if reported IC50 for CCC(c1nc2ccsc2c(=O)n1Cc1ccc(C)cc1)N(CCCN)C(=O)c1ccc(C)cc1 (stereo unspecified) is less than 3000 nM
yes (1)

Consider CCC(c1nc2nccnc2c(=O)n1Cc1ccccc1)N(CCCN)C(=O)c1ccc(C)cc1 (stereo unspecified) . Does its IC50 lie strictly below 3000 nM?
no (0)

Strictly below 3000 nM in IC50? CCC(c1nc2ccsc2c(=O)n1Cc1ccccc1)N(CCCN)C(=O)CC(C)C (stereo unspecified)
no (0)

Is IC50 of CCC(c1nc2ccsc2c(=O)n1Cc1ccccc1)N(CCCN)C(=O)c1ccc(Cl)cc1 (stereo unspecified) strictly below 3000 nM?
yes (1)

Please check: IC50 for CCC(c1nc2ccn(C)c2c(=O)n1Cc1ccccc1)N(CCCN)C(=O)c1ccc(C)cc1 (stereo unspecified) , strictly under 3000 nM or not?
yes (1)

Report whether reported IC50 is lower than 3000 nM (strictly) for CCC(c1nc2ccsc2c(=O)n1Cc1cscn1)N(CCCN)C(=O)c1ccc(C)cc1 (stereo unspecified)
no (0)

Is IC50 of CCC(NC(=O)c1ccc(C)cc1)c1nc2ccsc2c(=O)n1Cc1ccccc1 (stereo unspecified) strictly below 3000 nM?
no (0)

Identify whether the compound CCC(c1nc2ccsc2c(=O)n1Cc1ccccc1)N(CCCN)C(=O)c1sccc1C (stereo unspecified) records IC50 below 3000 nM.
yes (1)
